Just for reference, PubChem BioAssay is where these values come from.

# study system: Carbonic anhydrase 2 (Homo sapiens) (UniProt P00918)
# assay explanation: compounds binding carbonic anhydrase 2 – biochemical, small-molecule microarray, Alexa647-labelled CAII, profiling panel (AID 1122)
# measurement conditions: CAII-A647 binding fluorescence, higher = more signal
quantity name: composite z-score
Could you respond with only the numeric value?

{"columns": ["molecule", "composite z-score"],
 "data": [
  ["C=C(CCCC)/C(=C/C[C@H](OC(=O)c1ccncc1)c1ccccc1OCCO)c1cc(C(=O)OC)ccc1OC", 0.63],
  ["CC(C)C(CO)N1C(=O)[C@@H]2C3C(=O)OCCC/C=C\\[C@H]3OC23C=CCN(Cc2ccccc2)C(=O)[C@@H]13 (some centres not stated)", 0.902]
]}

Read the next record carefully.
What the record says about "CO[C@H]1O[C@H](CO)[C@@H](OC(=O)Nc2ccccc2)[C@H](OC(=O)Nc2ccccc2)[C@H]1OC(=O)Nc1ccccc1" : composite z-score is 0.521

----------
Recorded composite z-score values for a group of compounds are listed next.
# assay explanation: probe aNOTCH2 binding on compound microarray – biochemical, small-molecule microarray, 635/667 nm fluorescence, primary screen (AID 1121);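 note: score merges feature fluorescence read at 667 nm with its signal to noise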
# measurement conditions: higher = more signal
Answer as a number with no unit attached.

// field: composite z-score; key: "C=C(CCCC)/C(=C/C[C@@H](OC(C)=O)c1ccc(CO)o1)c1cnc2ccccc2c1" ; value = -0.0684

Data point: "COCCOC(=O)N1C(=O)[C@@]2(c3cc(C#CCC(C(=O)OC)C(=O)OC)ccc31)[C@H](c1ccc(O)cc1)N1[C@H](c3ccccc3)[C@H](c3ccccc3)OC(=O)[C@H]1[C@@H]2C(=O)Nc1nc2ccccc2s1" ; composite z-score = -0.126

# composite z-score (compound: CCCCC(O)C1C=CC2C(=O)N(c3ccccc3)C(=O)C2N1Nc1ccc(C#N)cc1 (stereo unspecified) ) is 0.349

# composite z-score of "O=C1O[C@H](c2ccccc2)[C@H](c2ccccc2)N2[C@H]1[C@@H](C(=O)O)[C@]1(C(=O)Nc3ccc(C#CCCO)cc31)[C@H]2c1ccc(OCCO)cc1" = 0.015

For reference, reported composite z-score for "COc1ccc([Si](C)(C)[C@H]2[C@H](CCO)O[C@@]3(C(=O)N(Cc4cccc(N(C=O)c5ccccc5)c4)c4ccccc43)[C@@H]2C)cc1" stands at -0.102

The reported composite z-score of the compound "C=CCOC(=O)[C@H]1[C@@H]2C(=O)O[C@@H](c3ccccc3)[C@@H](c3ccccc3)N2[C@@H](c2ccc(OCCOC(=O)[C@@H]3C[C@@H]4C(=O)N[C@@H](CCCC[N+](C)(C)C)C(=O)N4[C@@H]3c3ccc(O)cc3)cc2)[C@]12C(=O)Nc1ccc(I)cc12" was -0.0267

----------
# study system: NADPH oxidase 4 (Homo sapiens) (UniProt Q9NPH5)
# Sequence (Q9NPH5 whole entry, looked up): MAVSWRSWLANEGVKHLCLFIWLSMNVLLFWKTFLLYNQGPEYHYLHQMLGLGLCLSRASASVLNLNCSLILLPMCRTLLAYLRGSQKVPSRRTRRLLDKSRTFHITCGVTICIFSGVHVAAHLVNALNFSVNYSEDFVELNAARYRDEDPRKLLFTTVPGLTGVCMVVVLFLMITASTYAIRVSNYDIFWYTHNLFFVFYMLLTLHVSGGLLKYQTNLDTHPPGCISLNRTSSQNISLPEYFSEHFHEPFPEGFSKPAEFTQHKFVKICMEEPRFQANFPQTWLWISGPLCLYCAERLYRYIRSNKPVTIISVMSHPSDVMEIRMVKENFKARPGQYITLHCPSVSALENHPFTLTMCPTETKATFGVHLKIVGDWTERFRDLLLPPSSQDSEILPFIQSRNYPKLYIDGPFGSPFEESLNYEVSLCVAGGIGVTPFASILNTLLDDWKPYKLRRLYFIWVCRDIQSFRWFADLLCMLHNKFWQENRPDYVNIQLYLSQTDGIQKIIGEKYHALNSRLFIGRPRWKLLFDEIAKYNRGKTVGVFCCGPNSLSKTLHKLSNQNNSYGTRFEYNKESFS
# assay explanation: compounds shifting NOX4 Amplex Red fluorescence – cell-based, HEK293-NOX4, tetracycline-induced, NOX inhibitor project, primary screen (AID 1160)
# measurement conditions: HEK293-NOX4, Amplex Red H2O2 fluorescence, 45 min; higher = more signal, called active from +8 up or from −8 down
quantity name: z-score
Answer with a bare number; do not write a unit.

{"columns": ["molecule", "study system", "z-score"],
 "data": [
  ["O=C1O[C@H](c2ccccc2)[C@H](c2ccccc2)N2[C@H]1[C@@H](C(=O)N1CCN(c3ncccn3)CC1)[C@]1(C(=O)Nc3ccc(C#CCCO)cc31)[C@H]2c1ccc(O)cc1", "NADPH oxidase 4 (Homo sapiens) (UniProt Q9NPH5)", 0.722],
  ["CC1CC/C=C\\[C@H]2OC34C=CCN(C(C)(C)C)C(=O)[C@H]3N(CCCO)C(=O)[C@@H]4C2C(=O)O1 (some centres not stated)", "NADPH oxidase 4 (Homo sapiens) (UniProt Q9NPH5)", -2.14],
  ["C=C(CCCC)/C(=C/C[C@H](OC(C)=O)c1cccc(OCCO)c1)c1cnc2ccccc2c1", "NADPH oxidase 4 (Homo sapiens) (UniProt Q9NPH5)", -0.294]
]}

"O=C1c2ccccc2[C@@]2(Cc3ccccc3N(Cc3ccccc3)C2=O)[C@H](c2ccc(CO)cc2)N1Cc1ccccc1Cl" has a reported z-score of -0.644

// recorded z-score for CC(C)(C)N1CC=CC23O[C@@H]4C=CCCOC(=O)C4[C@H]2C(=O)N(CCCCCCO)[C@@H]3C1=O (some centres not stated) : -0.0325

Lab note: "CCOC(=O)C[C@H]1[C@H](OC(=O)Cc2ccc3c(c2)OCO3)[C@@H](NC(=O)Cc2ccc(OC)cc2)c2cc(OCCCO)ccc2N1C(=O)Cc1ccc(OC)cc1" gave z-score of 0.754

The value of z-score measured for the molecule "O=C(NCc1ccccc1)[C@@H]1c2ccccc2C(=O)N(Cc2cc(C(F)(F)F)cc(C(F)(F)F)c2)[C@H]1c1ccc(CO)cc1" turned out to be 0.284

----------
# study system: NADPH oxidase 5 (Homo sapiens) (UniProt Q96PH1)
# Sequence (Q96PH1 whole entry, looked up): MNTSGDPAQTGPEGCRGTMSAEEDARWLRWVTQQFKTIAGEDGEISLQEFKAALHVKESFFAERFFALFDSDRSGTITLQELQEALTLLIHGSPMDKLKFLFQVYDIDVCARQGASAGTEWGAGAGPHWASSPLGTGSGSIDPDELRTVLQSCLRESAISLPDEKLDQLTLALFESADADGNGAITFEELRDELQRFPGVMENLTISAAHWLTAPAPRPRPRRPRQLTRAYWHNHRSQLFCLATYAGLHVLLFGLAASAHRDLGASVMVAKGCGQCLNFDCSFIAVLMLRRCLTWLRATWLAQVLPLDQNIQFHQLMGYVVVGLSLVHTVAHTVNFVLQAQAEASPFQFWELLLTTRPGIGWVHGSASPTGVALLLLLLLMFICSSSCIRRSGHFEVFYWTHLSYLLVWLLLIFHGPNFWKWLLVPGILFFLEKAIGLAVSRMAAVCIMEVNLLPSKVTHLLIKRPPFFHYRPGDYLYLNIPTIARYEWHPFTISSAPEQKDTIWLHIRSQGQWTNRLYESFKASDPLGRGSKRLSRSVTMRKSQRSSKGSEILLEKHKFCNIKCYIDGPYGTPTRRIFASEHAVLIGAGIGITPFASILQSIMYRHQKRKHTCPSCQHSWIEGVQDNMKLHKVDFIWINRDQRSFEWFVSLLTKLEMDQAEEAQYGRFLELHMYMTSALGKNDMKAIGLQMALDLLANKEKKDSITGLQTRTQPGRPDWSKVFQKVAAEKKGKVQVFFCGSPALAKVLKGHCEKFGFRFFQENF
# assay explanation: compounds shifting NOX5 Amplex Red fluorescence – cell-based, HEK293-NOX5, NOX inhibitor project, primary screen (AID 1161)
# measurement conditions: HEK293-NOX5, ionomycin, 45 min, higher = more signal
quantity name: z-score
Note: the reply should be a number with no unit written.

For record O=C(NCC(O)CO)C1N=C(c2ccc(OCCCO)cc2)N(c2ccccc2)O1 (centres undefined) the listed z-score is -0.583

Recorded z-score (compound "CC(C)(C)OC(=O)CC[C@@]1(C(=O)NCCN2CCOCC2)N=C(c2ccc(OCCCO)cc2)O[C@@H]1c1ccccc1CN=[N+]=[N-]" ): 1.54

Kindly note the recorded z-score for "Cc1ccc(S[C@]2(C(=O)NCCCN(C)C)CC(=O)N(Cc3ccccc3C(F)(F)F)[C@@H]2c2ccc(CO)cc2I)cc1" , which is 1.96

Noted for "O=C(O)[C@H](Cc1ccccc1)n1cc(C2(O)CCCCC2)nn1" : its z-score reads 0.31

----------
# System: wheat germ agglutinin (Triticum aestivum), Alexa647-labelled
# assay explanation: Alexa647-WGA lectin binding to printed small molecules – biochemical, small-molecule microarray, 635/667 nm fluorescence, artefact control for SMM control-protein annotation, profiling panel (AID 1140);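 note: score merges 667 nm feature emission with signal to noise over triplicate slides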
# measurement conditions: WGA-A647 binding, 635 nm fluorescence, higher = more signal
quantity name: composite z-score
I'd appreciate a reply containing only the number, no unit.

{"columns": ["compound", "value observed"],
 "data": [
  ["COC(=O)C(CC#Cc1ccc2c(c1)[C@]1(C(=O)N2)[C@H](c2ccccc2OCCO)N2[C@H](c3ccccc3)[C@H](c3ccccc3)OC(=O)[C@H]2[C@@H]1C(=O)N1CCc2cc(OC)c(OC)cc2C1)C(=O)OC", 0.28],
  ["CC1CC/C=C\\[C@H]2OC34C=CCN(c5ccc6ccccc6c5)C(=O)[C@H]3N(C(C)CO)C(=O)[C@@H]4C2C(=O)O1 (some centres not stated)", -0.946],
  ["C=C(CCCC)C(=O)CC[C@@H](OC(=O)c1ccccc1-c1ccccc1C(=O)O)c1ccccc1OCCO", -0.191],
  ["O=C1C[C@@](C(=O)NC2CC2)(c2ccc([N+](=O)[O-])cc2)[C@@H](c2ccc(CO)cc2)N1C1CCCCC1", 0.407],
  ["COc1ccc(C(=O)Nc2cccc(CN3C(=O)[C@]4(O[C@H](CC(=O)N5Cc6ccccc6C[C@H]5CO)[C@@H]([Si](C)(C)c5ccc(OC)cc5)[C@@H]4C)c4ccccc43)c2)cc1", -0.0276],
  ["O=C1[C@H]2C=C(I)[C@H](C[C@@H]2OCCCCCCO)[C@@]12CO2", -0.291]
]}

Continue with the compound presented below.
The reported value for "Cc1ccc(S[C@]2(C(=O)NCCCN(C)C)CC(=O)N(Cc3ccccc3C(F)(F)F)[C@@H]2c2ccc(CO)cc2I)cc1" in terms of composite z-score is -0.193

----------
# study system: Torsin-1A-interacting protein 2 (Homo sapiens) (UniProt Q8NFQ8)
# Sequence (Q8NFQ8 whole entry, looked up): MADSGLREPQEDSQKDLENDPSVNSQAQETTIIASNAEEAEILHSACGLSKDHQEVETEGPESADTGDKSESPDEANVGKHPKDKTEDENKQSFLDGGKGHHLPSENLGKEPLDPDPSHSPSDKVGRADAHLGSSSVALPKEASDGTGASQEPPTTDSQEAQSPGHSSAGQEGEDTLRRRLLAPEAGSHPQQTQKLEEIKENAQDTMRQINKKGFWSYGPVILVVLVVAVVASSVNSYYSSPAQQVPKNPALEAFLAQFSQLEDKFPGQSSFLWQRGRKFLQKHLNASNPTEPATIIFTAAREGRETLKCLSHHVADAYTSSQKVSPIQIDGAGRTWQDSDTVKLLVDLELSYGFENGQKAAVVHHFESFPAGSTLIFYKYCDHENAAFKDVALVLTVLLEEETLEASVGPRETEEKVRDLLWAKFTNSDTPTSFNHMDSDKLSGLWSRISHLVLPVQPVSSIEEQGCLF
# assay explanation: small molecules binding lysate-expressed LULL1 – cell lysate, human LULL1 lysate, 635/667 nm fluorescence, primary screen (AID 1092);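 note: probe is lysate of COS7 cells overexpressing human LULL1; score merges per-feature 667 nm fluorescence with signal-to-noise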
# measurement conditions: small-molecule microarray, hLULL1 lysate binding, 635 nm fluorescence; higher = more signal
Reported composite z-score values are given for each entry in this list.
// return just the number, without any unit appended

{"columns": ["compound", "composite z-score"],
 "data": [
  ["CC=CC(O)C1C=CC2C(=O)NC(=O)C2N1Nc1ccc(Cl)cc1Cl (configuration not stated)", 2.28]
]}

composite z-score for "COc1ccc([Si](C)(C)[C@H]2[C@H](CC(=O)N3Cc4ccccc4C[C@H]3CO)O[C@@]3(C(=O)N(C)c4c(Br)cc(C)cc43)[C@@H]2C)cc1" is 0.986

What the record says about CCCCCC1=C2CNC(CC(C)C)(C(=O)OC)C=C2C(C)C1=O (configuration not stated) : composite z-score is 2.87

The compound identified as COc1cc(OC)c(C(O)C2C=CC3C(=O)N(c4ccccc4)C(=O)C3N2Nc2ccc(C(C)C)cc2)cc1Br (configuration not stated) registered its composite z-score at 3.55
